# System: apyrase
# protocol-text: Screen for apyrase inhibitors (Method 1, in vitro phosphate-release absorbance assay)
# Format: biochemical
# assay-context: inhibitor conc at 1 mM stock, 1 hr room temperature, absorbance 630 nm; rounded average of two assay results

>  <compound>
Cc1ccc(S(=O)(=O)N(C)c2ccc(C(=O)Nc3cccc(N4CCCC4=O)c3)cc2)cc1 [I-946]

>  <target-or-test-system>
apyrase

>  <% Inhibition of Apyrase, %>
44

$$$$
>  <compound>
O=C(Nc1ccccc1Cl)c1cccc(S(=O)(=O)N2CCc3ccccc32)c1 [I-604]

>  <target-or-test-system>
apyrase

>  <% Inhibition of Apyrase, %>
23

$$$$
>  <compound>
Cc1cc(C(=O)Nc2cccc(S(=O)(=O)Nc3ccccc3Cl)c2)sc1C [I-713]

>  <target-or-test-system>
apyrase

>  <% Inhibition of Apyrase, %>
58

$$$$
>  <compound>
O=C(Nc1cccc(C(F)(F)F)c1)c1cccc(NS(=O)(=O)c2cccc(Cl)c2)c1 [I-317]

>  <target-or-test-system>
apyrase

>  <% Inhibition of Apyrase, %>
69

$$$$
>  <compound>
O=C(Nc1ccc(F)cc1)c1ccc(S(=O)(=O)Nc2ccccc2Cl)cc1 [I-400]

>  <target-or-test-system>
apyrase

>  <% Inhibition of Apyrase, %>
41

$$$$
>  <compound>
COc1ccccc1NS(=O)(=O)c1ccc(NC(=O)c2cccc([N+](=O)[O-])c2)cc1 [I-993]

>  <target-or-test-system>
apyrase

>  <% Inhibition of Apyrase, %>
48

$$$$
>  <compound>
COc1ccc(NS(=O)(=O)c2cccc(C(=O)Nc3cnc4[nH]nc(C)c4c3)c2)cc1 [I-606]

>  <target-or-test-system>
apyrase

>  <% Inhibition of Apyrase, %>
16

$$$$
>  <compound>
Cc1ccc(F)c(NC(=O)c2cccc(S(=O)(=O)N3c4ccccc4CC3C)c2)c1 (stereo not drawn) [I-497]

>  <target-or-test-system>
apyrase

>  <% Inhibition of Apyrase, %>
57

$$$$
>  <compound>
O=C(Nc1ccccc1NS(=O)(=O)c1cccs1)c1ccc(Cl)cc1 [I-832]

>  <target-or-test-system>
apyrase

>  <% Inhibition of Apyrase, %>
58

$$$$
>  <compound>
COc1ccc(S(=O)(=O)N2CCc3ccccc32)cc1C(=O)Nc1cccc(C#N)c1 [I-442]

>  <target-or-test-system>
apyrase

>  <% Inhibition of Apyrase, %>
61

$$$$
>  <compound>
Cc1nc2cc(NC(=O)c3cccc(S(=O)(=O)Nc4ccc(Br)cc4)c3)ccc2o1 [I-256]

>  <target-or-test-system>
apyrase

>  <% Inhibition of Apyrase, %>
61

$$$$
>  <compound>
COc1ccccc1NS(=O)(=O)c1ccc(C(=O)Nc2ccc3c(c2)OCO3)cc1 [I-409]

>  <target-or-test-system>
apyrase

>  <% Inhibition of Apyrase, %>
30

$$$$
>  <compound>
COc1ccc(NS(=O)(=O)c2ccc(C(=O)Nc3ccc(F)cc3C)cc2)cc1 [I-416]

>  <target-or-test-system>
apyrase

>  <% Inhibition of Apyrase, %>
13

$$$$
>  <compound>
COc1ccc(NS(=O)(=O)c2cccc(C(=O)N3c4ccccc4CC3C)c2)cc1 (stereo not drawn) [I-435]

>  <target-or-test-system>
apyrase

>  <% Inhibition of Apyrase, %>
64

$$$$
>  <compound>
O=C(Nc1ccccc1C(=O)N1CCCCC1)c1cccc(S(=O)(=O)N2CCc3ccccc32)c1 [I-572]

>  <target-or-test-system>
apyrase

>  <% Inhibition of Apyrase, %>
50

$$$$
>  <compound>
O=C(Nc1ccccc1NS(=O)(=O)c1cccs1)c1cc(Cl)ccc1F [I-840]

>  <target-or-test-system>
apyrase

>  <% Inhibition of Apyrase, %>
18

$$$$
>  <compound>
NC(=O)c1cccc(NC(=O)c2cccc(S(=O)(=O)N3CCc4ccccc43)c2)c1 [I-456]

>  <target-or-test-system>
apyrase

>  <% Inhibition of Apyrase, %>
60

$$$$
>  <compound>
COc1ccc(Br)c(C(=O)Nc2cccc(NS(=O)(=O)c3ccc(C)c(C)c3)c2)c1 [I-338]

>  <target-or-test-system>
apyrase

>  <% Inhibition of Apyrase, %>
69

$$$$

Entry source: patent US12685312B2
